Tested on: HEK-293T
Assay: Incucyte cell viability with HEK293T; note: filed as whole numbers so only -1 and 0 and 1 occur
Type: toxicity, cell-based
Conditions: human, 24 h, 10 µM, compound concentration 10 uM, replicate number 1, timepoint 24 hours
test.readout: Growth Rate

Query block: Provide the documented Growth Rate with HEK-293T as the system for `CCCc1nc2c(C)cc(-c3nc4ccccc4n3C)cc2n1Cc1ccc(-c2ccccc2C(=O)O)cc1`
Result block: 0

Query block: Test system HEK-293T; read-out Growth Rate; what value for Cc1nc(-c2cn3c(n2)-c2ccc(-c4cnn(C(C)(C)C(N)=O)c4)cc2OCC3)n(C(C)C)n1 [TASELISIB] ?
Result block: 0

Query block: I'm curious: which Growth Rate was measured for `CSc1ccc(C(=O)N[C@@H]2CCCC[C@@H]2NC(=O)CNC(=O)c2cc(C(F)(F)F)ccc2NC(=O)NC(C)C)cc1` tested on HEK-293T?
Result block: 0

Query block: Request body: readout Growth Rate, system HEK-293T, query `CN(C)C(=O)c1ccc(-c2cc(C(=O)N[C@@H]3CCc4ccccc43)no2)cc1O` . Return the value.
Result block: 1

Query block: Query Growth Rate on HEK-293T for CC(=O)Nc1c(C(C)=O)c(=O)n(C)c2nc(-c3ccc(Cl)cc3Cl)c(-c3ccc(Cl)cc3)cc12 [NAPHTHYRIDINONE]
Result block: 0

Query block: Hello, I am looking for reported Growth Rate with HEK-293T for COc1ccc(Oc2cc(NCCC(F)(F)F)c3ncc(-c4ccc(C(=O)NC5CC5)c(C)c4)n3n2)c(F)c1F [BAY-1217389] . Could you help?
Result block: 0

Query block: Can you look up Growth Rate on HEK-293T for `C[C@@H](c1cccc(CN)c1)n1cc(Cl)cc(C(N)=O)c1=N.Cl` ?
Result block: 1

Query block: Record `N[C@H](C(=O)O)c1ccc(C(=O)O)c(C(=O)O)c1` : what is its Growth Rate with HEK-293T?
Result block: 1

----------
The molecules listed here are annotated with their Population Fragmented Nuclei (%).
Tested on: U2OS
Assay: Multiplex assay against U2OS
Assay type: toxicity, cell-based
Conditions: human, 12 h, 1 µM, compound concentration 1 uM, replicate 2
Give the value in % but do not write % after it.

molecule: CCN(CC)CCCCNc1ncc2cc(-c3cc(OC)cc(OC)c3)c(NC(=O)NC(C)(C)C)nc2n1
test.readout: Population Fragmented Nuclei (%)
recorded.measurement: 31
//
molecule: O=C1NCN(c2ccccc2)C12CCN(CCCOc1ccc(F)cc1)CC2 [SPIRAMIDE]
test.readout: Population Fragmented Nuclei (%)
recorded.measurement: 10
//
molecule: OC1(c2ccc(Cl)cc2)CCN(Cc2c[nH]c3ccccc23)CC1
test.readout: Population Fragmented Nuclei (%)
recorded.measurement: 13
//
molecule: COc1cc(-n2cnc3cc(-c4ccc(Cl)cc4)sc3c2=O)ccc1OCCN1CCCC1
test.readout: Population Fragmented Nuclei (%)
recorded.measurement: 11

Now take the following molecule into account.
Query block: Which measured Population Fragmented Nuclei (%) value corresponds to Cl.N#Cc1ccc2[nH]cc(CCCCN3CCN(c4ccc5oc(C(N)=O)cc5c4)CC3)c2c1 [VILAZODONE HYDROCHLORIDE] ?
Result block: 14

----------
Below is a list of entries, each paired with its recorded Population Tubulin-Different-Phenotype (%) value.
Test system: HEK-293T
Test: Multiplex assay against HEK293T;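 for Population Tubulin-Different-Phenotype (%): share of the cells with healthy nuclei that show this phenotype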
Type: toxicity, cell-based
Settings: human, 12 h, 1 µM, compound concentration 1 uM, replicate 1
Hi! Could you send only the number? It should be in %, unit omitted.

The cases that follow already have their Population Tubulin-Different-Phenotype (%) on record.
compound: COc1cccc([C@@H](C)NCCCc2ccccc2Cl)c1.Cl [TECALCET HYDROCHLORIDE]
recorded.measurement: 57
//
compound: Cc1csc2c(N[C@@H](C)CN3CCN(S(=O)(=O)c4ccc(Cl)c(Cl)c4)CC3)ncnc12
recorded.measurement: 93
//
compound: Cc1nc(Nc2n[nH]c3c2CN(C(=O)N[C@H](CN(C)C)c2ccccc2)C3(C)C)c2sccc2n1
recorded.measurement: 3

Query block: Looking for the measured Population Tubulin-Different-Phenotype (%) of `OC1(c2ccc(Cl)cc2)CCN(Cc2c[nH]c3ccccc23)CC1` , can you help?
Result block: 45

Query block: What measured Population Tubulin-Different-Phenotype (%) goes with `c1cn2cc(-c3ccc4cn[nH]c4c3)nc(Nc3ccc(N4CCOCC4)cc3)c2n1` ?
Result block: 74

Query block: I have this compound here, `CN1CCN(CCOc2cc(OC3CCOCC3)c3c(Nc4c(Cl)ccc5c4OCO5)ncnc3c2)CC1` , and I need its recorded Population Tubulin-Different-Phenotype (%).
Result block: 82

Query block: Quick one: Population Tubulin-Different-Phenotype (%) for `C=CC(=O)Nc1cccc(C(=O)Nc2ccc(Nc3cc(-c4[nH]c(SC)nc4C)ccn3)cc2)c1` ?
Result block: 54

----------
Tested on: Fibroblast
Experiment: Multiplex assay against human fibroblast
Assay type: toxicity, cell-based
Details: 48 h, 1 µM, compound concentration 1 uM, replicate 2
test.readout: Population Apoptotic (%)
Please reply with the bare figure in % and do not write the unit itself.

molecule: Cc1c(-c2ccc(O)cc2)n(Cc2ccc(OCCN3CCCCCC3)cc2)c2ccc(O)cc12 [BAZEDOXIFENE]
units: %
Population Apoptotic (%): 75

Query block: So what's the measured Population Apoptotic (%) for this one? O=C1NCN(c2ccccc2)C12CCN(CCCOc1ccc(F)cc1)CC2 [SPIRAMIDE]
Result block: 0

Query block: # Population Apoptotic (%) lookup, item CC(C)NCC(O)COc1ccc(CCOCC2CC2)cc1.Cl (stereo not drawn) [BETAXOLOL HYDROCHLORIDE]
Result block: 83

Query block: For the molecule `CNc1nc(NCc2ccc(NS(C)(=O)=O)cc2Cl)cc(-c2ccccn2)n1` , what Population Apoptotic (%) is on record?
Result block: 50

Query block: I'd like to know its Population Apoptotic (%). The molecule in question is `C=CC(=O)Nc1ccc2ncnc(Nc3ccc(OCc4cccc(F)c4)c(Cl)c3)c2c1.Cc1ccc(S(=O)(=O)O)cc1`
Result block: 50

Query block: Field request: Population Apoptotic (%) | item: `Cc1csc2c(N[C@@H](C)CN3CCN(S(=O)(=O)c4ccc(Cl)c(Cl)c4)CC3)ncnc12`
Result block: 100

Query block: Param item = CC[C@H](C)C(=O)O[C@H]1C[C@@H](C)C=C2C=C[C@H](C)[C@H](CC[C@@H]3C[C@@H](O)CC(=O)O3)[C@H]21 [LOVASTATIN] ; retrieve measured Population Apoptotic (%).
Result block: 33

Query block: Any idea what its Population Apoptotic (%) is? The molecule is `COc1cc(-n2cnc3cc(-c4ccc(Cl)cc4)sc3c2=O)ccc1OCCN1CCCC1`
Result block: 33

----------
Here, each record is paired with measured Population Membrane Permeable-Phenotype (%) data.
Test system: HEK-293T
Experiment: Multiplex assay against HEK293T
Assay type: toxicity, cell-based
Details: human, 48 h, 10 µM, compound concentration 10 uM, replicate 1
Provide the reading as a plain figure in %.

Below: 3 compounds and their reported Population Membrane Permeable-Phenotype (%).
smi: Cc1cc(C)cc(-c2cnc3cc(Cl)c(-c4cccc(O)c4)cc3c2OCCCN)c1
recorded.measurement: 0

smi: Cc1csc2c(N[C@@H](C)CN3CCN(S(=O)(=O)c4ccc(Cl)c(Cl)c4)CC3)ncnc12
recorded.measurement: 25

smi: CCn1c(=O)c(-c2ccc(Cl)cc2Cl)cc2cnc(Nc3ccc(N4CCNCC4)c(F)c3)nc21
recorded.measurement: 0

// below: Population Membrane Permeable-Phenotype (%) requested for another compound
Query block: Item under review: `Cc1nc(-c2ccc(-c3ccc(C(=O)N4CCc5cc6c(cc54)C4(CCN(C)CC4)CO6)cc3)c(C)c2)no1` . Reported Population Membrane Permeable-Phenotype (%)?
Result block: 7

----------
System: HEK-293T
Test: Multiplex assay against HEK293T
Format: toxicity, cell-based
Conditions: human, 24 h, 1 µM, compound concentration 1 uM, replicate 1
test.readout: Population Membrane Permeable-Phenotype (%)
Response body: numeric value in %, unit text excluded.

Sample records with Population Membrane Permeable-Phenotype (%):
compound: Cc1cc(C)cc(-c2cnc3cc(Cl)c(-c4cccc(O)c4)cc3c2OCCCN)c1
recorded.measurement: 1

compound: CNc1nc(NCc2ccc(NS(C)(=O)=O)cc2Cl)cc(-c2ccccn2)n1
recorded.measurement: 0

compound: COc1cc(-n2cnc3cc(-c4ccc(Cl)cc4)sc3c2=O)ccc1OCCN1CCCC1
recorded.measurement: 1

compound: NC(=O)Nc1cc(-c2cccc(F)c2)sc1C(=O)N[C@H]1CCCNC1
recorded.measurement: 9

compound: O=C1NCN(c2ccccc2)C12CCN(CCCOc1ccc(F)cc1)CC2 [SPIRAMIDE]
recorded.measurement: 0

Query block: Item under review: COc1cccc([C@@H](C)NCCCc2ccccc2Cl)c1.Cl [TECALCET HYDROCHLORIDE] . Reported Population Membrane Permeable-Phenotype (%)?
Result block: 2

Query block: Any idea what its Population Membrane Permeable-Phenotype (%) is? The compound is `CC[C@H](C)C(=O)O[C@H]1C[C@@H](C)C=C2C=C[C@H](C)[C@H](CC[C@@H]3C[C@@H](O)CC(=O)O3)[C@H]21`
Result block: 4

Query block: Report Population Membrane Permeable-Phenotype (%) for `Cc1nc(Nc2n[nH]c3c2CN(C(=O)N[C@H](CN(C)C)c2ccccc2)C3(C)C)c2sccc2n1` please.
Result block: 3

Query block: Param item = `CC(C)(O)CNc1ncc(-c2ccnc(Nc3ccnc(Cl)c3)n2)c(CC2CC2)n1` ; retrieve measured Population Membrane Permeable-Phenotype (%).
Result block: 1
